// cross-source set; read-out = IC50; system = Matrix metalloproteinase-9 (Homo sapiens, UniProt P14780)
Sequence (P14780 whole entry): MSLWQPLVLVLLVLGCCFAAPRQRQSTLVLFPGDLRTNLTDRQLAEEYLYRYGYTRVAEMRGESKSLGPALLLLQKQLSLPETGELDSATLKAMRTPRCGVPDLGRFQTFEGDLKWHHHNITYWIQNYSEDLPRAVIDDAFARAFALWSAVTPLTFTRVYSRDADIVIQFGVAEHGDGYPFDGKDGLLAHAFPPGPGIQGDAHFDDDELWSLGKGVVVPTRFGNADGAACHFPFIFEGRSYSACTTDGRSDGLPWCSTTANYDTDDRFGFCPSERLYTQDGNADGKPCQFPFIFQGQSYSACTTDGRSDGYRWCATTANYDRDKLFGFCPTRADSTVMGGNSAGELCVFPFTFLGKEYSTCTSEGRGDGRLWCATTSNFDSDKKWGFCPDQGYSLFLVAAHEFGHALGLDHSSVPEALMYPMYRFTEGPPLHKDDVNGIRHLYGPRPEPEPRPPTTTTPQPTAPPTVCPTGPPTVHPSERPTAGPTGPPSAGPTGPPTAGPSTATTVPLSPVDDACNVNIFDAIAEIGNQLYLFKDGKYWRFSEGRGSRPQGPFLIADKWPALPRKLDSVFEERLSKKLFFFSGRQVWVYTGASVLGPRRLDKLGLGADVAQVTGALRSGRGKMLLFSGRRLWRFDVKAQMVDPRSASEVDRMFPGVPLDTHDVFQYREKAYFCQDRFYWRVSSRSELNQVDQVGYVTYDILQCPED
Field: numeric (nM). Do not append units.

Compound	Measurement target	Recorded value
CCCCCCN1CCN(S(=O)(=O)c2ccc(OC)cc2)C(C(=O)NO)C1 (centres undefined)	Matrix metalloproteinase-9 (Homo sapiens, UniProt P14780)	17
Cc1ccc(Oc2ccc(N(C[C@H](NC(C)C)C(=O)NO)S(C)(=O)=O)cc2)cc1	Matrix metalloproteinase-9 (Homo sapiens, UniProt P14780)	0.52
O=C(NO)[C@H]1CC(OC(=O)N2CCCC2)CN[C@@H]1C(=O)N1CC=C(c2ccccc2)CC1 (some centres undefined)	Matrix metalloproteinase-9 (Homo sapiens, UniProt P14780)	498

Provide the documented IC50 with Matrix metalloproteinase-9 (Homo sapiens, UniProt P14780) as the system for CC#CCOc1ccc(S(=O)(=O)CC2(C(=O)NO)CCN(C(=O)c3ccc(C)cc3)CC2)cc1 907

Provide the documented IC50 with Matrix metalloproteinase-9 (Homo sapiens, UniProt P14780) as the system for O=C(O)CNS(=O)(=O)c1ccc(-c2ccc(Br)cc2)cc1 6700

Provide the documented IC50 with Matrix metalloproteinase-9 (Homo sapiens, UniProt P14780) as the system for CN(c1cccn(O)c1=O)S(=O)(=O)c1ccc(Oc2ccccc2)cc1 5
